This collection of values is drawn from patent US20110230367A1.

target: pre-let7a-1; assay: Dissociation constant by competitive fluorescence anisotropy with rhodamine-rev peptide probe; assay type: binding; details: Table 5, second generation peptides; read-out: Kd value against pre-let7a-1
Each entry below carries its reported log10(Kd).
reportedMetric: log10(Kd) (log10 of the value in nM)

>>> observedmeasurement("LKKLLKLLKKWWKLAG [Peptide 2h, Ac-LKKLLKLLKKWWKLAG, 19]")
0.18
>>> observedmeasurement("LKKLLKLLKKWLKWAG [Peptide 2i, Ac-LKKLLKLLKKWLKWAG, 20]")
-0.51
>>> observedmeasurement("WKKLLKLLKKWLKLAG [Peptide 2c, Ac-WKKLLKLLKKWLKLAG, 14]")
-0.82
>>> observedmeasurement("LKKLLKLLKKLLKLAG [Peptide 1, Ac-LKKLLKLLKKLLKLAG]")
1.23
>>> observedmeasurement("WKKLLKLLKKLLKWAG [Peptide 2e, Ac-WKKLLKLLKKLLKWAG, 16]")
-0.66
>>> observedmeasurement("WKKLLKLLKKLWKLAG [Peptide 2d, Ac-WKKLLKLLKKLWKLAG, 15]")
-0.60

====

molecular target: pre-miR16-1; assay: Dissociation constant by competitive fluorescence anisotropy with rhodamine-rev peptide probe; type: binding; settings: Table 6; read-out: Kd pre-miR16-1
Each record is given class 1 if its reported Kd is strictly below 0.6 nM. Records at or above 0.6 nM are given class 0.

>>> assignedclass("LKKLLKLLKKWWKLAG [Peptide 2h, Ac-LKKLLKLLKKWWKLAG, 19]")
"class 0"
>>> assignedclass("LKKLWKLLKKLLKWAG [Peptide 2f, Ac-LKKLWKLLKKLLKWAG, 17]")
"class 0"
>>> assignedclass("WKKLLKWLKKLLKLAG [Peptide 2b, Ac-WKKLLKWLKKLLKLAG, 13]")
"class 1"
>>> assignedclass("LKKLLKLLKKLWKWAG [Peptide 2j, Ac-LKKLLKLLKKLWKWAG, 21]")
"class 1"
>>> assignedclass("WKKLLKLLKKWLKLAG [Peptide 2c, Ac-WKKLLKLLKKWLKLAG, 14]")
"class 1"
>>> assignedclass("WKKLLKLLKKLLKWAG [Peptide 2e, Ac-WKKLLKLLKKLLKWAG, 16]")
"class 1"
>>> assignedclass("WKKLWKLLKKLLKLAG [Peptide 2a, Ac-WKKLWKLLKKLLKLAG, 12]")
"class 1"
>>> assignedclass("LKKLLKLLKKWLKWAG [Peptide 2i, Ac-LKKLLKLLKKWLKWAG, 20]")
"class 1"
>>> assignedclass("WKKLLKLLKKLWKLAG [Peptide 2d, Ac-WKKLLKLLKKLWKLAG, 15]")
"class 0"
>>> assignedclass("LKKLLKWLKKLLKWAG [Peptide 2g, Ac-LKKLLKWLKKLLKWAG, 18]")
"class 0"

====

test system: pre-miR16-1; test: Dissociation constant by competitive fluorescence anisotropy with rhodamine-rev peptide probe; assay type: binding; conditions: Table 6; Kd against other RNA/Kd against target miRNA
reportedMetric: Discrimination ratio pre-miR16-1 (in parenthesis)

>>> observedmeasurement("LKKLLKLLKKWWKLAG [Peptide 2h, Ac-LKKLLKLLKKWWKLAG, 19]")
1.0
>>> observedmeasurement("LKKLLKLLKKWLKWAG [Peptide 2i, Ac-LKKLLKLLKKWLKWAG, 20]")
1.6
>>> observedmeasurement("WKKLLKWLKKLLKLAG [Peptide 2b, Ac-WKKLLKWLKKLLKLAG, 13]")
1.1
>>> observedmeasurement("LKKLLKWLKKLLKWAG [Peptide 2g, Ac-LKKLLKWLKKLLKWAG, 18]")
0.99
>>> observedmeasurement("WKKLLKLLKKLLKWAG [Peptide 2e, Ac-WKKLLKLLKKLLKWAG, 16]")
2.3
>>> observedmeasurement("WKKLLKLLKKLWKLAG [Peptide 2d, Ac-WKKLLKLLKKLWKLAG, 15]")
1.2
>>> observedmeasurement("LKKLWKLLKKLLKWAG [Peptide 2f, Ac-LKKLWKLLKKLLKWAG, 17]")
1.2
>>> observedmeasurement("LKKLLKLLKKLWKWAG [Peptide 2j, Ac-LKKLLKLLKKLWKWAG, 21]")
1.4
>>> observedmeasurement("WKKLWKLLKKLLKLAG [Peptide 2a, Ac-WKKLWKLLKKLLKLAG, 12]")
2.6
>>> observedmeasurement("WKKLLKLLKKWLKLAG [Peptide 2c, Ac-WKKLLKLLKKWLKLAG, 14]")
1.4
